All values here come from patent US20190309074A1.

Reported Fraction4, After φ by item:
- test name: aggregation and purification amounts of deglycosylated antibodies, before and after φ
- Assay type: physicochemical
- setup conditions: based on 100 ml culture

molecule	Fraction4, After φ
Deglyco-C2: deglycosylated clone 1 IgG; light chain CDR1 TGSSSNIGATAVT (SEQ ID NO: 3) (antibody, V domains shown) VH: EVQLVESGGGLVQPGGSLRLSCAVSGFTFSGYDMSWIRQAPGKGLEWVAGIYPDGGNTYYADSVKGRFTISRDDSKNTFYLQMNSLRAEDTAVYYCARGATWWVLGPFDYWGQGTLVTVSS VL: DIQLTQSPSSLSASVGDRVTITCTGSSSNIGATAVTWYQQKPGKAPKLLIYADSHRPSGVPSRFSGSGSGTDFTLTISSLQPEDFATYYCGAWDDSLSGYVFGQGTKVEIKR	0.198 mg
Deglyco-C3: deglycosylated clone 1 IgG; light chain CDR1 TGSSSNIGWSNVT (SEQ ID NO: 4) (antibody, V domains shown) VH: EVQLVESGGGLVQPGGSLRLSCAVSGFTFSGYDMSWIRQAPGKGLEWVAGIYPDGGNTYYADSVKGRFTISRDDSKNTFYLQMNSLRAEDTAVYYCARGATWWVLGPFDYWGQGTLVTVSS VL: DIQLTQSPSSLSASVGDRVTITCTGSSSNIGWSNVTWYQQKPGKAPKLLIYADSHRPSGVPSRFSGSGSGTDFTLTISSLQPEDFATYYCGAWDDSLSGYVFGQGTKVEIKR	0.127 mg
Deglyco-C4: deglycosylated clone 1 IgG; light chain CDR1 TGSSSNIGAVVVT (SEQ ID NO: 5) (antibody, V domains shown) VH: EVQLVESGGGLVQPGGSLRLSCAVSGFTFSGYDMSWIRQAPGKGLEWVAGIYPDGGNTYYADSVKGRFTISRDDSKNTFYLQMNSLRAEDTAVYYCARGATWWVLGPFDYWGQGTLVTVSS VL: DIQLTQSPSSLSASVGDRVTITCTGSSSNIGAVVVTWYQQKPGKAPKLLIYADSHRPSGVPSRFSGSGSGTDFTLTISSLQPEDFATYYCGAWDDSLSGYVFGQGTKVEIKR	0.050 mg
